For each of the compounds below, state its cytotoxicity at 10 µM.
Assay: Toxicity liver stage against HepG2, at 10uM
Type: cell-based
Design: test concentration 10 uM, cell line HepG2-A16-CD81EGFP
Details: human, HepG2-A16-CD81EGFP cells; read-out: INHIBITION
Give the value, in units of %, as a plain number.

For the compound O=c1c(Cc2ccccc2)c(O)ccn1Cc1ccco1 , give its measured cytotoxicity at 10 µM value. 5.01

For the compound CCC[C@H]1CN(CCS(C)(=O)=O)C[C@@H]1NC(=O)c1ccccc1F , give its measured cytotoxicity at 10 µM value. -5.88

For the compound Cc1cc(F)ccc1NS(=O)(=O)c1cc2c(c(C(=O)O)c1)OCCO2 , give its measured cytotoxicity at 10 µM value. -6.56

For the compound COc1ccc(-c2nc(CN3CCc4cnc(C)nc4C3)no2)cc1 , give its measured cytotoxicity at 10 µM value. -7.1

For the compound CN(C)C(=O)N1CCC2(CC(=O)N(c3ccc4c(c3)OCO4)C2)C1 (stereo unspecified) , give its measured cytotoxicity at 10 µM value. 8.04

For the compound CN(Cc1cnccn1)S(=O)(=O)c1ccc(C(F)(F)F)nc1 , give its measured cytotoxicity at 10 µM value. -9.77

For the compound CSCC(CCO)NC(=O)c1cccc(C)c1Cl (stereo unspecified) , give its measured cytotoxicity at 10 µM value. 16.8

For the compound C[C@]1(O)CN(CCC(N)=O)CC[C@@H]1Oc1cccc(F)c1 , give its measured cytotoxicity at 10 µM value. -0.224

For the compound COC(=O)c1ccc(-c2noc(CN(CCO)Cc3cccs3)n2)cc1 , give its measured cytotoxicity at 10 µM value. 6.43

For the compound CN(C)CC(=O)N1CCCC1c1cncc(Oc2ccc(F)cc2)n1 (stereo unspecified) , give its measured cytotoxicity at 10 µM value. -10.9

For the compound CCC(=O)N1CCCC1c1csc(Nc2cnccn2)n1 (stereo unspecified) , give its measured cytotoxicity at 10 µM value. -2.8

For the compound CCC(O)CN1CCN(C(=O)c2cccn2Cc2ccccc2)CC1 (stereo unspecified) , give its measured cytotoxicity at 10 µM value. -8.03

For the compound c1ccc(CN2CCc3ncnc(-c4cncnc4)c3CC2)nc1 , give its measured cytotoxicity at 10 µM value. -68.3

For the compound CS(=O)(=O)N[C@@H]1CN(Cc2ccccc2)C[C@@H]2CCCO[C@@H]21 , give its measured cytotoxicity at 10 µM value. 2.58

For the compound COCCn1ccc(=O)c(OCC(=O)Nc2ccccc2)c1C , give its measured cytotoxicity at 10 µM value. 3.72

For the compound CCC(C)C(=O)Nc1ccc2oc(=O)n(CCN(C)C)c2c1 (stereo unspecified) , give its measured cytotoxicity at 10 µM value. -14.8

For the compound O=C1CSC(C(F)(F)F)c2c(O)nn(C3CCCC3)c2N1 (stereo unspecified) , give its measured cytotoxicity at 10 µM value. 3.49

For the compound COc1ccc(CNc2nnc(CC(C)(C)C)o2)cc1C#N , give its measured cytotoxicity at 10 µM value. -10.1

For the compound COc1ccc(Cc2nc3c([nH]2)CC(C)(C)CNC3=O)cc1OC , give its measured cytotoxicity at 10 µM value. -3.04

For the compound Cc1ccc(CN2CCNC(=O)C2CC(=O)NCc2n[nH]c(C)n2)cc1 (stereo unspecified) , give its measured cytotoxicity at 10 µM value. -3.83

For the compound COCCn1ccnc1CN1CCc2[nH]cnc2C1c1cccc(O)c1 (stereo unspecified) , give its measured cytotoxicity at 10 µM value. -2

For the compound CC(C)c1nc(N2CCN3CCCC3C2)c2cnn(C)c2n1 (stereo unspecified) , give its measured cytotoxicity at 10 µM value. -11.9

For the compound Cc1nc(NCCc2noc(C3CCCO3)n2)c2sccc2n1 (stereo unspecified) , give its measured cytotoxicity at 10 µM value. 53.6

For the compound c1cnc(N2CCO[C@H]3CN(Cc4csnn4)C[C@H]32)cn1 , give its measured cytotoxicity at 10 µM value. 4.23

For the compound Cc1cnc(CNS(=O)(=O)CCC2CCCO2)o1 (stereo unspecified) , give its measured cytotoxicity at 10 µM value. 9.84

For the compound Cc1ccc(CNC(=O)c2cc(Cn3ccnc3C(C)C)[nH]n2)o1 , give its measured cytotoxicity at 10 µM value. 3.42

For the compound Cn1nc2c(cc1=O)CN(Cc1nc(-c3ccsc3)no1)CC2 , give its measured cytotoxicity at 10 µM value. -2.21

For the compound CCO[C@H]1CN(C(=O)c2ccc3c(c2)OCO3)[C@@H]2COC[C@H]12 , give its measured cytotoxicity at 10 µM value. -130

For the compound CCN(CC)C(CNS(=O)(=O)c1ccc(C(N)=O)cc1)c1ccco1 (stereo unspecified) , give its measured cytotoxicity at 10 µM value. -8.64

For the compound COc1cccc(CN2CCc3nc(C(N)=O)sc3CC2)c1 , give its measured cytotoxicity at 10 µM value. -3.79

For the compound CCn1ccnc1S(=O)(=O)Cc1c(C)cc(C)c(C(C)=O)c1C , give its measured cytotoxicity at 10 µM value. 8.5

For the compound Cc1cc(CNc2ccc(-c3nc(C4CC4)no3)cn2)no1 , give its measured cytotoxicity at 10 µM value. 2.55

For the compound O=S(=O)(CC1CCCCO1)Nc1c(F)cccc1-n1cccn1 (stereo unspecified) , give its measured cytotoxicity at 10 µM value. 3.44

For the compound CNC(=O)[C@@]12CCO[C@@H]1CCN(S(=O)(=O)c1cc(C)cc(C)c1)C2 , give its measured cytotoxicity at 10 µM value. -73.5

For the compound c1cnc(N2CCCn3c(nnc3Cn3cccn3)C2)nc1 , give its measured cytotoxicity at 10 µM value. -1.58

For the compound O=C(Cc1cn2ccsc2n1)N1CCCC(n2cccn2)C1 (stereo unspecified) , give its measured cytotoxicity at 10 µM value. -13.6

For the compound Cc1nc(CN2CCN(C(=O)c3sccc3C3CC3)CC2)cs1 , give its measured cytotoxicity at 10 µM value. 3.61

For the compound Cc1csc2ncnc(N3CCC(Cn4cc(C(C)(C)N)nn4)CC3)c12 , give its measured cytotoxicity at 10 µM value. 25.5

For the compound COc1cc(S(=O)(=O)Nc2cn[nH]c2)ccc1Br , give its measured cytotoxicity at 10 µM value. -1.47

For the compound CC(C)Oc1cc(N2CC[C@@H](N3CCOCC3)[C@H](O)C2)nc(N)n1 , give its measured cytotoxicity at 10 µM value. -2.32

For the compound CNC(=O)[C@@]12CCO[C@@H]1CCN(S(=O)(=O)c1cccnc1)C2 , give its measured cytotoxicity at 10 µM value. -3.3

For the compound COCCn1ccnc1C1CCCN(c2ncnc3c(C)csc23)C1 (stereo unspecified) , give its measured cytotoxicity at 10 µM value. 2.57

For the compound CCC(=O)Nc1ccc(F)c(S(=O)(=O)NC(C)(C)C)c1 , give its measured cytotoxicity at 10 µM value. -1.74

For the compound CCN1CCCC(CNC(=O)CCc2ccc(OC)c(F)c2)C1 (stereo unspecified) , give its measured cytotoxicity at 10 µM value. -3.42

For the compound Cc1nn(C)c(C)c1-c1cnc(CC2CCNCC2)cn1 , give its measured cytotoxicity at 10 µM value. -13.7

For the compound CCCn1cc(NC(=O)c2ccc(S(C)(=O)=O)cc2)ccc1=O , give its measured cytotoxicity at 10 µM value. -13.1
